Measured GI50 by item
- System: SK-OV-3
- protocol_details: NCI tumour cell line growth inhibition, 48 h
Active and inactive are the calls of the source. No stated cut-off is given here; in the data, active = GI50 up to about 1.1 µM and inactive = higher.
parameter: GI50

{"compound": "O=C(CSc1n[nH]c(=O)[nH]c1=O)NNC(=O)c1cccc2nc3ccccc3nc12", "reading": "> 100 µM (inactive)"}
{"compound": "COC(=O)[C@@]1(C(C)CC(=O)O)CCCCC1=O (some centres not stated)", "reading": "> 100 µM (inactive)"}
{"compound": "C=C1CC2(CCCC3(CC(=C)C(=O)O3)C2(C)C)OC1=O (configuration not stated)", "reading": "20.5 µM (inactive)"}
{"compound": "O=C(CCCC(=O)Nc1ccc(Cl)cc1Cl)CC(=O)c1ccc2ccccc2c1", "reading": "> 100 µM (inactive)"}
{"compound": "CS(=O)(=O)c1nc(Cl)c(Cl)c(C#N)c1Cl", "reading": "6.75 µM (inactive)"}
{"compound": "O/N=N/c1ccccn1.OCC1OC2OC3C(CO)OC(OC4C(CO)OC(OC5C(CO)OC(OC6C(CO)OC(OC7C(CO)OC(OC1C(O)C2O)C(O)C7O)C(O)C6O)C(O)C5O)C(O)C4O)C(O)C3O (configuration not stated)", "reading": "> 100 µM (inactive)"}
{"compound": "Cc1cn([C@H]2C[C@@H]3[C@@H](COC(CCl)N3O)O2)c(=O)[nH]c1=O (some centres not stated)", "reading": "> 100 µM (inactive)"}

---

- Test system: MDA-MB-231
- protocol_details: NCI tumour cell line growth inhibition, 48 h
Active and inactive are the calls of the source. Rule as the data show it: active = GI50 up to about 1.1 µM and inactive = higher.
parameter: GI50

{"molecule": "Sc1nnc(COc2ccc(Cl)cc2)n1-c1ccccc1", "reading": "> 100 µM (inactive)"}
{"molecule": "C=C(Cl)/C(=C\\Cl)CCC(Br)C(C)C (centres undefined)", "reading": "24.9 µM (inactive)"}
{"molecule": "COc1cc2ccnc3c2c(c1OC)N(C)C=C3", "reading": "29.1 µM (inactive)"}
{"molecule": "CC1CC(C)CN(S(=O)(=O)c2cc(Cl)c(Oc3ccc([N+](=O)[O-])cc3Cl)c(Cl)c2)C1 (centres undefined)", "reading": "> 100 µM (inactive)"}
{"molecule": "CC1=C/C(=N\\NS(=O)(=O)c2ccc([N+](=O)[O-])cc2)CC(C)(C)C1", "reading": "> 100 µM (inactive)"}
{"molecule": "CC(C)(C)N(Cc1ccccc1)C(=O)/C=C\\[S+]([O-])c1ccccc1 (centres undefined)", "reading": "3.27 µM (inactive)"}
{"molecule": "C=CCc1cccc2cc(C(=O)Nc3nc(C45CC6CC(CC(C6)C4)C5)cs3)c(=O)oc12", "reading": "23.4 µM (inactive)"}
{"molecule": "CCCCCCCCCCCC(=O)N(CCCCCCCCCCC(=O)O)CC(O)C(O)C(OC1OC(CO)C(O)C(O)C1O)C(O)CO (centres undefined)", "reading": "> 100 µM (inactive)"}
{"molecule": "N#C/N=C1/c2ccccc2/C(=N/C#N)c2cc(CO)ccc21", "reading": "71.4 µM (inactive)"}

---

- System: LOX IMVI
- protocol_details: NCI tumour cell line growth inhibition, 48 h
The source made the active and inactive calls. Rule as the data show it: active = GI50 up to about 1.1 µM and inactive = higher.
# GI50 annotations
parameter: GI50

{"compound": "C=CC(Cl)(CBr)CCC(Br)=C(C)C (configuration not stated)", "reading": "15.7 µM (inactive)"}
{"compound": "O=C1Nc2ccccc2/C1=N/NC(=S)Nc1cccc(Cl)c1", "reading": "5.37 µM (inactive)"}
{"compound": "CC1CC(Br)C(=O)O1 (configuration not stated)", "reading": "> 100 µM (inactive)"}
{"compound": "CCOC(=O)C(C)N1C(=O)c2ccccc2S1(=O)=O (configuration not stated)", "reading": "> 100 µM (inactive)"}
{"compound": "Cc1cccc(NC(Nc2cccc(C)c2)=C(C(Cl)=C(Cl)Cl)[N+](=O)[O-])c1", "reading": "8.99 µM (inactive)"}
{"compound": "CC(=O)Nc1c(C)cc(OCC(=O)O)cc1C", "reading": "> 100 µM (inactive)"}
{"compound": "CC1=C(C)C(=O)c2c(cc3c4ccccc4ccn23)C1=O", "reading": "> 100 µM (inactive)"}

---

- System: HOP-18
- protocol_details: NCI tumour cell line growth inhibition, 48 h
Calls of active or inactive are those of the source. Cut-off read from the data, not from the text of the source: active = GI50 up to about 1.1 µM and inactive = higher.
Catalogue of GI50 values
parameter: GI50

{"molecular_string": "Cc1cc(=O)n(-c2cc3cccccc-3n2)[nH]1", "tested_system": "HOP-18", "parameter": "GI50", "reading": "3.95 µM (inactive)"}
{"molecular_string": "CCCCSC(=CC(=O)c1cccc(C(=O)C=C(SCCCC)SCCCC)n1)SCCCC", "tested_system": "HOP-18", "parameter": "GI50", "reading": "> 100 µM (inactive)"}
{"molecular_string": "CC(C)OC(=O)Nc1c([N+](=O)[O-])cc(C(F)(F)F)cc1[N+](=O)[O-]", "tested_system": "HOP-18", "parameter": "GI50", "reading": "21.6 µM (inactive)"}

---

- System: SR
- protocol_details: NCI tumour cell line growth inhibition, 48 h
The source made the active and inactive calls. Cut-off read from the data, not from the text of the source: active = GI50 up to about 1.1 µM and inactive = higher.

{"molecular_string": "O=C(CSc1n[nH]c(=O)[nH]c1=O)NNC(=O)c1cccc2nc3ccccc3nc12", "GI50": "> 100 µM (inactive)"}
{"molecular_string": "Oc1cccc2ccc(Br)nc12", "GI50": "62.4 µM (inactive)"}
{"molecular_string": "Cn1c(=O)cc2[nH]c3ccccc3n2c1=O", "GI50": "> 100 µM (inactive)"}
{"molecular_string": "CCCSc1ccc2[nH]c(N3C(=O)/C(=C/c4ccco4)N=C3c3ccccc3)cc2c1", "GI50": "7.26 µM (inactive)"}
{"molecular_string": "N#Cc1ncc(C(Cl)Cl)nc1Cl", "GI50": "1.81 µM (inactive)"}

---

- System: OVCAR-4
- protocol_details: NCI tumour cell line growth inhibition, 48 h
Activity calls are given as the source filed them. Rule as the data show it: active = GI50 up to about 1.1 µM and inactive = higher.
Labels: active, inactive

{"molecule": "C=Cc1ccccc1C1(O)C=CC(OC)(OC)C=C1", "assigned_category": "inactive"}
{"molecule": "CC[C@@]1(O)C(=O)OCc2c1cc1n(c2=O)Cc2c-1nc1ccccc1c2/C=N\\NC(=O)C(N)Cc1ccc(O)cc1 (stereo partly drawn)", "assigned_category": "inactive"}
{"molecule": "O=C(NN1C(=O)C(Cl)C1c1c(O)ccc2ccccc12)c1ccccc1O (stereo not drawn)", "assigned_category": "inactive"}
{"molecule": "Cc1cc(C2(c3cc(C)c(O)c4ncccc34)OC(=O)c3ccccc32)c2cccnc2c1O", "assigned_category": "active"}
{"molecule": "CC(C)C(=O)NCC[C@@H](CNC(=O)OC(C)(C)C)NC(=O)OC(C)(C)C", "assigned_category": "inactive"}
{"molecule": "FC(F)(F)c1nc2cc(SSc3cc4nc(C(F)(F)F)[nH]c4cc3Cl)c(Cl)cc2[nH]1", "assigned_category": "inactive"}
{"molecule": "Cn1cnc([N+](=O)[O-])c1Sc1nc2ccccc2o1", "assigned_category": "inactive"}
{"molecule": "C=CCNC(=S)NC=C(C(N)=O)C(N)=O", "assigned_category": "inactive"}

---

- Test system: M14
- protocol_details: NCI tumour cell line growth inhibition, 48 h
The source made the active and inactive calls. No stated cut-off is given here; in the data, active = GI50 up to about 1.1 µM and inactive = higher.

{"compound": "Cc1cn(CC2=NCCN2)c(=O)[nH]c1=O", "GI50": "> 100 µM (inactive)"}
{"compound": "O=C(CNc1ccccn1)Nn1cnc2ccc(S(=O)(=O)Nc3ccccn3)cc2c1=O", "GI50": "> 100 µM (inactive)"}
{"compound": "COc1ccc2c(c1)c(Cc1c(C)n(C)c3ccc(OC)cc13)c(C)n2C", "GI50": "> 100 µM (inactive)"}
{"compound": "Nc1nc2c3nc(Nc4ccccc4)sc3nc(=S)n2c2sc(Nc3ccccc3)nc12", "GI50": "> 100 µM (inactive)"}
{"compound": "O=C1CCC2(c3ccc(F)cc3)Nc3ncccc3N12 (stereo not given)", "GI50": "> 100 µM (inactive)"}
{"compound": "CCC1CCN=C(Cn2cc(C)c(=O)[nH]c2=O)N1 (stereo not given)", "GI50": "> 100 µM (inactive)"}
{"compound": "O=C(CO)CC(=O)C(=O)Nc1cccc(C(F)(F)F)c1", "GI50": "> 100 µM (inactive)"}
{"compound": "CC1=C/C(=N\\NS(=O)(=O)c2ccc([N+](=O)[O-])cc2)CC(C)(C)C1", "GI50": "> 100 µM (inactive)"}
{"compound": "O=C1CS(=O)(=O)C(c2cccc(Oc3ccccc3)c2)N1c1ccc(Cl)cc1 (stereo not given)", "GI50": "18.5 µM (inactive)"}
{"compound": "OCCSCC(O)Cn1cnc2c(O)nc(Nc3ccccc3)nc21 (stereo not given)", "GI50": "> 100 µM (inactive)"}
{"compound": "O=[N+]([O-])c1nccn1COCCO", "GI50": "> 100 µM (inactive)"}
{"compound": "CC(C)OC(=O)Nc1c([N+](=O)[O-])cc(C(F)(F)F)cc1[N+](=O)[O-]", "GI50": "> 100 µM (inactive)"}
{"compound": "Cc1cc2c(cc1C)N1C(Cl)=C3CCCCC3=C(C#N)C1N2 (stereo not given)", "GI50": "7.38 µM (inactive)"}
{"compound": "C/C=C1/CCC2c3[nH]c4ccccc4c3CCN2C1 (stereo not given)", "GI50": "14.4 µM (inactive)"}
{"compound": "CCOC(=O)c1cc2c3c(c(O)c(OC)c2s1)N(C(=O)c1cc2c4c(c(O)c(OC)c2s1)N(C(C)=O)CC4)CC3", "GI50": "46.5 µM (inactive)"}
